A collection of compounds and their measured Ki
Assay: Inhibition of Ruminococcus gnavus GUS pre-incubated for 5 to 30 mins before 4-methylumbelliferone beta-D-glucuronide substrate addition at pH 6.7
Parameters: species or system Mediterraneibacter gnavus
Measured Parameter: Ki (µM)

>>> readout_value("O=C(O)[C@H]1CNC[C@@H](O)[C@@H]1O")
0.0039
>>> readout_value("CCCN1C[C@@H](O)[C@H](O)[C@@H](C(=O)O)C1")
5.45
>>> readout_value("CCC[C@@H]1NC[C@@H](O)[C@H](O)[C@H]1C(=O)O")
51.8

----------
A collection of compounds and their measured Ki
Experiment: Inhibition of Bacteroides fragilis GUS pre-incubated for 5 to 30 mins before 4-methylumbelliferone beta-D-glucuronide substrate addition at pH 5.5
Measured Parameter: Ki

>>> readout_value("O=C(O)[C@H]1NC[C@H](O)[C@@H](O)[C@@H]1O")
"2410 nM"
>>> readout_value("CCCN1C[C@@H](O)[C@H](O)[C@@H](C(=O)O)C1")
"38700 nM"
>>> readout_value("O=C(O)[C@H]1OC(=O)[C@H](O)[C@@H](O)[C@@H]1O")
"690 nM"
>>> readout_value("CCC[C@@H]1NC[C@@H](O)[C@H](O)[C@H]1C(=O)O")
"7450 nM"
>>> readout_value("O=C(O)[C@H]1NC(=O)[C@H](O)[C@@H](O)[C@@H]1O")
"69 nM"
